# Test Protocol: Half life in rhesus monkey at 0.5 mg/kg, iv
# Format: ADME, organism-based, Macaca mulatta
# Parameters: dose 0.5 mg/kg, route intravenous
# Test Conditions: in vivo

Chemical Smiles | half-life [min]
C[C@@H](NC(=O)Cc1ccc(C2CC2)cc1)c1ccc(OCC(F)(F)F)cn1 | 54

* * *

Listing of entries alongside the reported pIC50.
# Test Protocol: Binding affinity to L-type Ca2+ channel
pIC50: −log10 of the molar value.

Chemical Smiles | pIC50
COc1ccc([C@@H](C)NC(=O)Cc2ccc(C(C)(C)C)cc2)nc1 | < 5.00
C[C@@H](NC(=O)Cc1ccc(C2CC2)cc1)c1ccc(OCC(F)(F)F)cn1 | < 5.00
